Taken from PubChem BioAssay (NCI).

tested on: MCF7 breast; assay: NCI tumour cell line growth inhibition, 48 h; in the data active = GI50 below about 0.43 µM; inactive = the rest
Return exactly one item of active, inactive

GET /call?item= COc1ccc(-c2c(C#N)cnc(N)c2-c2nc3cc(C)c(C)cc3[nH]2)cc1 returns the recorded outcome of this test.
inactive

Could you check what this test reported for CCCC(CCC)C(=O)O ?
inactive

Recorded test outcome, item COc1cc[nH]c1/C=C1\C(=O)Nc2ccc([N+](=O)[O-])c(N3CC[C@@H](O)C3)c21
active

For COc1cc(OC)c2c(c1Cl)O[C@]1(C2=O)C(OCc2ccccc2)=CC(=O)C[C@H]1C , which call appears in the assay record?
active

====

test system: MDA-MB-231 breast; assay: NCI tumour cell line growth inhibition, 48 h
Observation type: TGI

In plain terms, COc1ccc(-c2cc(=O)c3cccnc3[nH]2)cc1 has a documented TGI of > 100 µM

Lab note: measured TGI of Cc1c(C=C(C#N)C#N)c(=O)n(C)c(=O)n1C was > 100 µM

The recorded TGI for entry COc1cc(C2SC(N)=Nc3c2c(C)nn3C(=O)c2ccc(Cl)cc2)ccc1O (stereo not given) equals > 10 µM

Value of measured TGI for the entry CCCNC(=O)c1cc(NC(=O)c2cc(NC(=O)CCS(=O)(=O)OC)cn2C)cn1C : > 70.8 µM

get_value(item= C=C(C)COC(=O)COCC(=O)OCC(=C)C , readout=TGI) returns > 100 µM

Lab book: TGI of CCO/N=C(/CC)c1ccc(Br)s1 noted as > 100 µM

Looking up COc1ccc(/C=C2\CC3C4CC=C5C[C@@H](O)CC[C@]5(C)C4CC[C@]3(C)C2=O)cc1OC (stereo not given in full) , I see its TGI listed as > 100 µM

Given item CCOC(=O)/C=C1\C[C@H](NC(=O)OCc2ccccc2)C(=O)N1CC(=O)OCC , the value recorded as its TGI is > 100 µM

Entry under test: CC1(C)N=C(N)N=C(N)N1CCCCc1ccccc1 . Its TGI was > 100 µM

In plain terms, CCCC(CCC)C(=O)O has a documented TGI of > 20000 µM

====

test system: NCI-H522 lung; assay: NCI tumour cell line growth inhibition, 48 h
Assign TGI to each entry below.

Recorded TGI (molecule N#CCCn1c(CCC(=O)Nc2ccc(Cl)cc2Cl)n[nH]c1=S ): > 100 µM

Record NC1=CN(Cc2ccccc2)C2=N/C(=C\c3ccco3)C(=O)N12 . Reported TGI: > 100 µM

Briefly, TGI measured for CC(=O)Nc1cc(CN2CCCCC2)c(O)c2ncccc12 : > 100 µM

// recorded TGI for COc1ccccc1NC1=NCC(C)S1 (stereo unspecified) : > 100 µM

TGI reading for CC(=O)Nc1ccccc1S(=O)c1ccccc1 (stereo unspecified) : > 100 µM

# TGI of COc1ccc(OC)c(/C=C/C(=O)c2ccc3cc(OC)ccc3c2)c1 = > 14 µM

====

test system: HOP-62 NSCLC; test: NCI tumour cell line growth inhibition, 48 h
Observation type: TGI

The measured TGI associated with CC1CCC2[C@@H](C)COC3O[C@]4(C)CCC1C32OO4 (stereo partly specified) reads > 100 µM

Entry Cc1cc(C)nc(NS(=O)(=O)c2ccc(NC(=O)c3ccc4nc5ccccc5c(Nc5ccc(S(=O)(=O)Nc6nc(C)cc(C)n6)cc5)c4c3)cc2)n1 — recorded TGI = > 100 µM

Lab book: TGI of Cc1c(C=C(C#N)C#N)c(=O)n(C)c(=O)n1C noted as > 100 µM

Record CCN1C(=O)N(CC)C2C1NN=c1s/c(=C\c3cnc(C)n3C)c(=O)n12 (stereo unspecified) . Reported TGI: > 100 µM

Recorded TGI (compound CC1CC2(C)CC(=O)C1C1C(=O)N(CCN3CCOCC3)C(=O)C12 (stereo unspecified) ): > 100 µM

get_value(item= Cc1ccc2c(c1)C/C(=C\c1ccccc1C(=O)O)C2=O , readout=TGI) returns > 100 µM

// CC(C)(C)OC(=O)CC(NC(=O)OC(C)(C)C)C(=O)Oc1ccc([N+](=O)[O-])cc1 (stereo unspecified) : TGI value = > 100 µM

// field: TGI; key: CC1(C)O[C@@H](CP(c2ccc3ccccc3c2)c2ccc3ccccc3c2)[C@H](CP(c2ccc3ccccc3c2)c2ccc3ccccc3c2)O1 ; value = > 100 µM

Record O=c1[nH]c(Br)nc2c(N3CCCCC3)c[nH]c12 , field TGI: > 100 µM

CCOc1ccccc1NC(=O)C(=O)c1c(O)c2ccc(O)cc2oc1=O has a reported TGI of > 100 µM

Reported TGI ( N#CC1([N+](=O)[O-])C=C1c1ccccc1 (stereo unspecified) ) = > 100 µM

Kindly note the recorded TGI for C/C=C1/C(=O)O[C@]23C=C[C@@H]4C(C(=O)OC)=CO[C@H](O[C@@H]12)[C@@H]43 , which is 22 µM

Record ClCCCN1CCCCC1CCl (stereo unspecified) , field TGI: > 100 µM

The measured TGI associated with O=C1NC(=O)C2(CCc3ccc(N(CCCl)CCCl)cc32)N1 (stereo unspecified) reads 35.5 µM

Quick note, TGI for CN(C)c1ccc(/C=c2\sc3nnc(Cc4ccccc4)n3c2=O)cc1 landed at > 100 µM

Data point: C[Si](C)(C)C#CCOC=C1CC1 ; TGI = > 100 µM

Entry under test: CC(=O)Oc1ccc2c3c1[C@@H]1O[C@@H]1c1cccc(c1-3)[C@@H]1O[C@H]21 . Its TGI was 3.96 µM

get_value(item= Cc1cn(C2CC(O)C(Cn3nncc3Cn3ccc(=O)[nH]c3=O)O2)c(=O)[nH]c1=O (stereo unspecified) , readout=TGI) returns > 100 µM

The reported value for CC(=O)O[C@@H]1CN(S(=O)(=O)c2ccc(C)cc2)C[C@@H]1C1CCCCC1 in terms of TGI is 66.7 µM

The recorded TGI for entry O=c1ccc2nc3ccc(O)cc3oc-2c1 equals > 100 µM

Consider CSc1nc(Cl)c2c(n1)Sc1nc3ccccc3n1N=C2 . Its measured TGI is > 100 µM

Per the record, Cc1ccccc1NC(=O)CC(=O)n1nc(-c2ccccc2)c(N=Nc2ccc([N+](=O)[O-])cc2)c1-c1ccccc1 has TGI of 48.3 µM

TGI recorded for this compound, C[C@H](c1ccc(Cl)cc1[N+](=O)[O-])N1C(=O)c2cc(I)ccc2NC(=O)[C@H]1c1ccc(Cl)cc1 , is > 100 µM

compound O=c1cc(-c2cccc(Br)c2)[nH]c2cc3c(cc12)OCO3 , TGI observed: 4.8 µM

// field: TGI; key: COC(=O)c1ccccc1Nc1ccccc1C(=O)OC ; value = > 100 µM

Query NNC(=O)N/N=C1/C(=O)N(c2ccc(Cl)c(Cl)c2)C(=O)C(=O)C1c1nc2ccccc2o1 (stereo unspecified) yields TGI of > 100 µM

====

system: OVCAR-8 ovarian; assay: NCI tumour cell line growth inhibition, 48 h
Record form. Attribute: TGI. Fill in for each entry.

Measured TGI, CCOc1ccccc1NC(=O)C(=O)c1c(O)c2ccc(O)cc2oc1=O : > 100 µM

Notebook: Cn1c(=O)c2[nH]cnc2n(C)c1=O.[CH2-]C(Cc1cccc2cc(C(=O)O)c(=O)oc12)OC.[Hg+2].[OH-] (stereo not drawn) , TGI read as 32 µM

The value of TGI measured for the molecule COc1cc(C2SC(N)=Nc3c2c(C)nn3C(=O)c2ccc(Cl)cc2)ccc1O (stereo not drawn) turned out to be > 10 µM

====

What TGI was measured for each of the following?
tested on: NCI-H460 lung; assay: NCI tumour cell line growth inhibition, 48 h

Notebook: CC1SC(c2cccc(Cl)c2)N(NC(=O)C(O)c2ccccc2)C1=O (stereo not drawn) , TGI read as > 100 µM

Value of TGI reported for the compound COc1ccc(-c2cc3c(N)ncnc3o2)cc1 is > 25 µM

Data point: COc1c(OC2OC(CO)C(O)C(O)C2O)cc2c(c1OC)-c1ccc(OC)c(=O)cc1[C@@H](NC(C)=O)CC2 (stereo partly drawn) ; TGI = > 100 µM

====

system: HCT-15 colon; experiment: NCI tumour cell line growth inhibition, 48 h
Provide the recorded TGI for the entries that follow.

Record for Cc1c(C=C(C#N)C#N)c(=O)n(C)c(=O)n1C under target or system HCT-15 colon: TGI reported as > 100 µM

// assay HCT-15 colon, entry CCOC(=O)/C=C1\C[C@H](NC(=O)OCc2ccccc2)C(=O)N1CC(=O)OCC , TGI value = > 100 µM

I looked up O=C1CC2OCC=C3CN4CCC56c7ccccc7N1C5C2C3CC46 (stereo not drawn) (tested in a mixture with another compound) and its TGI for HCT-15 colon was > 50 µg/mL

====

tested on: DU-145 prostate; assay: NCI tumour cell line growth inhibition, 48 h
Give TGI for every item shown.

Value of TGI reported for the molecule COc1ccc(OC)c(/C=C/C(=O)c2ccc3cc(OC)ccc3c2)c1 is > 20.7 µM

The molecule identified as N=c1oc2ccc(Cl)cc2cc1C(=O)NC1CCCCC1 registered its TGI at > 100 µM

Value of measured TGI for the entry CCOC(=O)/C=C1\C[C@H](NC(=O)OCc2ccccc2)C(=O)N1CC(=O)OCC : > 100 µM

So for CC(C)[C@H]1NC(=O)[C@H]2N=C(O[C@@H]2C)[C@@H]2CCCN2C(=O)[C@H](Cc2ccccc2)NC(=O)[C@@H]2COC(=N2)[C@@H](Cc2ccccc2)NC(=O)[C@@H]2COC1=N2 , the logged TGI turned out to be > 100 µM

TGI recorded for this molecule, O=c1ccc2nc3ccc(O)cc3oc-2c1 , is 57.5 µM

// TGI lookup, molecule = CC(=O)Nc1nc(C)c(-c2cc3c(c(S(C)(=O)=O)c2)C(=O)N([C@@H](C)C2CC2)C3)s1 , result: > 100 µM

C=C(C)COC(=O)COCC(=O)OCC(=C)C has a reported TGI of > 100 µM

The molecule identified as O=C(CSCC(=O)N/N=C/c1ccncc1)N/N=C/c1ccncc1 registered its TGI at > 100 µM
